The entries below are paired with their reported TGI.
- Tested on: EKVX NSCLC
- testProtocol: NCI tumour cell line growth inhibition, 48 h

These solved cases illustrate the format of a correct answer.
| molecule | endpointResult |
| --- | --- |
| COC(=O)/C=C/c1c(CC=C(C)C)ncn1C | > 100 µM |
| CCCCSC1=N/C(=C\c2ccco2)C(Cl)=N1 | > 100 µM |
| O=C(Oc1cccnc1)c1cc2cc(CCl)ccc2oc1=O | 52.1 µM |
| COc1ccc(-c2nc(-c3cc4c(ccc5ccccc54)oc3=O)cs2)cc1 | > 100 µM |
| CC(=O)Oc1ccccc1C(=O)Nc1ncc([N+](=O)[O-])s1 | > 100 µM |
| c1ccc2nc3c(nc2c1)sc1ccccc13 | 96.2 µM |
| O=CN1CCN(CC(O)CN2CCCCC2)CC1 (stereo unspecified) | > 100 µM |
| COC(=O)c1ccccc1Nc1nc(-c2cccs2)nc2cc(OC)c(OC)cc12 | > 100 µM |

Record "COc1ccc(-n2cnn3c(=O)c4cn[nH]c4nc23)cc1" has EKVX NSCLC TGI equal to > 10 µM

Record N#CC(OC1OC(COC2OC(CO)C(O)C(O)C2O)C(O)C(O)C1O)c1ccccc1 (stereo unspecified) has EKVX NSCLC TGI equal to > 225 µM

Record "Cc1c(/C=N/NC(=O)c2ccc(Cl)cc2)c(=O)n(-c2ccccc2)n1C" has EKVX NSCLC TGI equal to > 100 µM

Source of measurements: PubChem BioAssay (NCI)
